- assayProtocol: Half-life was evaluated in rats at an intravenous dose of 3 mg/kg
- Assay type: ADME, organism-based
- Parameters: dose 3 mg/kg, route intravenous
- conditionInfo: rat, in vivo
assayReadout: half-life (h)

compound="CN(C)CCNC(=O)C1=C[C@@]2(CC1)CCN(C(=O)c1ccc(NC(=O)c3ccccc3F)cc1)c1ccccc1C2 (single isomer, unassigned)" testvalue=4.35
compound=CN(C)CCNC(=O)C1=C[C@]2(CC1)CCN(C(=O)c1ccc(NC(=O)c3ccccc3-c3ccccc3)cc1)c1ccccc1C2 testvalue=1.68

----------
- target: Vasopressin V1a receptor (Rattus norvegicus, UniProt P30560)
- Sequence (P30560 whole entry): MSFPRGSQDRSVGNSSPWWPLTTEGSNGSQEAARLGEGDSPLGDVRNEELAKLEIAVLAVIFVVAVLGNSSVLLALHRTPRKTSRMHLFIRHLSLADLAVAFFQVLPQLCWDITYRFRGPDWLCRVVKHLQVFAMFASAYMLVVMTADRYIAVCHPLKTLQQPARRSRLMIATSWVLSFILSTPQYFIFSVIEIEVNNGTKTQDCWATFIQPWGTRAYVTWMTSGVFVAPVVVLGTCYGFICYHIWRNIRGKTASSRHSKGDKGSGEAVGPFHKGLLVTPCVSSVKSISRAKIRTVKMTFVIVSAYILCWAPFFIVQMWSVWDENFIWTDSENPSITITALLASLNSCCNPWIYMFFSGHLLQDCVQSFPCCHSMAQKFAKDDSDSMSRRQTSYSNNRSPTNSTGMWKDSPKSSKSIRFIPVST
- assayProtocol: Evaluated for binding affinity towards vasopressin receptor V1a in rat
assayReadout: IC50

compound="CN(C)CCNC(=O)C1=C[C@@]2(CC1)CCN(C(=O)c1ccc(NC(=O)c3ccccc3F)cc1)c1ccccc1C2 (single isomer, unassigned)" testvalue="0.433 µM"

----------
- assayProtocol: Solubility measured at pH 7.4
- Type: physicochemical
- conditionInfo: buffer
assayReadout: solubility

compound="CN(C)CCNC(=O)C1=C[C@@]2(CC1)CCN(C(=O)c1ccc(NC(=O)c3ccccc3F)cc1)c1ccccc1C2 (single isomer, unassigned)" assayreadout=solubility testvalue="70 µg/mL"
compound=CN(C)CCNC(=O)C1=C[C@]2(CC1)CCN(C(=O)c1ccc(NC(=O)c3ccccc3-c3ccccc3)cc1)c1ccccc1C2 assayreadout=solubility testvalue="40 µg/mL"

----------
We begin with a simple list: items and their reported pIC50.
- target: Vasopressin V2 receptor (Homo sapiens, UniProt P30518)
- Sequence (P30518 whole entry): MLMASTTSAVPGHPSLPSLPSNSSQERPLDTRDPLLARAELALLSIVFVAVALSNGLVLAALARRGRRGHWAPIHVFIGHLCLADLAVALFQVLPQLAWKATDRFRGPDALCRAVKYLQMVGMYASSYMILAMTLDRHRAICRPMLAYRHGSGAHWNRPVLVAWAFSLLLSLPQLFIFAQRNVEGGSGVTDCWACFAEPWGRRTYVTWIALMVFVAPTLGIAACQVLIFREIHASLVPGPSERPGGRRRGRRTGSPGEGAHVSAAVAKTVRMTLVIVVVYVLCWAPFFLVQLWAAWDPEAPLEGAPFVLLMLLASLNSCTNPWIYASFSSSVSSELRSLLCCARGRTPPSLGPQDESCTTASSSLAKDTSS
- assayProtocol: Binding affinity measured by inhibition of 3[H] AVP binding to cloned human vasopressin V2 receptor
pIC50: −log10 of the molar value.
assayReadout: pIC50

compound="O=C(NCCN1CCCCC1)C1=CC2(CC1)CCN(C(=O)c1ccc(NC(=O)c3ccccc3F)cc1)c1ccccc1C2 (stereo unspecified)" target="Vasopressin V2 receptor (Homo sapiens, UniProt P30518)" assayreadout=pIC50 relationsymbol=< testvalue=6.00
compound="Cc1ccc(F)cc1C(=O)Nc1ccc(C(=O)N2CCC3(C=C(C(=O)NCCN4CCCC4)CC3)Cc3ccccc32)cc1 (stereo unspecified)" target="Vasopressin V2 receptor (Homo sapiens, UniProt P30518)" assayreadout=pIC50 relationsymbol== testvalue=7.41
compound="CN(C)CCNC(=O)C1=CC2(CC1)CCN(C(=O)c1ccc(NC(=O)c3ccccc3F)cc1)c1ccccc1C2 (stereo unspecified)" target="Vasopressin V2 receptor (Homo sapiens, UniProt P30518)" assayreadout=pIC50 relationsymbol=< testvalue=6.00
compound="O=C(O)CNC(=O)C1=CC2(CC1)CCN(C(=O)c1ccc(NC(=O)c3ccccc3-c3ccccc3)cc1)c1ccccc1C2 (stereo unspecified)" target="Vasopressin V2 receptor (Homo sapiens, UniProt P30518)" assayreadout=pIC50 relationsymbol== testvalue=7.74
compound=CN(C)CCNC(=O)C1=C[C@]2(CC1)CCN(C(=O)c1ccc(NC(=O)c3ccccc3-c3ccccc3)cc1)c1ccccc1C2 target="Vasopressin V2 receptor (Homo sapiens, UniProt P30518)" assayreadout=pIC50 relationsymbol== testvalue=8.10
compound="O=C(NCCN1CCOCC1)C1=CC2(CC1)CCN(C(=O)c1ccc(NC(=O)c3ccccc3F)cc1)c1ccccc1C2 (stereo unspecified)" target="Vasopressin V2 receptor (Homo sapiens, UniProt P30518)" assayreadout=pIC50 relationsymbol=< testvalue=6.00

----------
- assayProtocol: Bioavailability was evaluated in rats at an oral dose of 30 mg/kg
- Format: ADME, organism-based
- conditionInfo: rat, in vivo
We begin with a simple list: items and their reported bioavailability.
assayReadout: bioavailability (%)

molecule="CN(C)CCNC(=O)C1=C[C@@]2(CC1)CCN(C(=O)c1ccc(NC(=O)c3ccccc3F)cc1)c1ccccc1C2 (single isomer, unassigned)" assayreadout=bioavailability testvalue=42
molecule=CN(C)CCNC(=O)C1=C[C@]2(CC1)CCN(C(=O)c1ccc(NC(=O)c3ccccc3-c3ccccc3)cc1)c1ccccc1C2 assayreadout=bioavailability testvalue=22

----------
We begin with a simple list: items and their reported Cmax.
- assayProtocol: Maximum plasma concentration was evaluated in rats at an intravenous dose of 3 mg/kg
- Format: ADME, organism-based
- Set-up: dose 3 mg/kg, route intravenous
- conditionInfo: rat
assayReadout: Cmax (nM)

compound="CN(C)CCNC(=O)C1=C[C@@]2(CC1)CCN(C(=O)c1ccc(NC(=O)c3ccccc3F)cc1)c1ccccc1C2 (single isomer, unassigned)" assayreadout=Cmax testvalue=1800
compound=CN(C)CCNC(=O)C1=C[C@]2(CC1)CCN(C(=O)c1ccc(NC(=O)c3ccccc3-c3ccccc3)cc1)c1ccccc1C2 assayreadout=Cmax testvalue=2660

----------
- target: Vasopressin V1a receptor (Homo sapiens, UniProt P37288)
- Sequence (P37288 whole entry): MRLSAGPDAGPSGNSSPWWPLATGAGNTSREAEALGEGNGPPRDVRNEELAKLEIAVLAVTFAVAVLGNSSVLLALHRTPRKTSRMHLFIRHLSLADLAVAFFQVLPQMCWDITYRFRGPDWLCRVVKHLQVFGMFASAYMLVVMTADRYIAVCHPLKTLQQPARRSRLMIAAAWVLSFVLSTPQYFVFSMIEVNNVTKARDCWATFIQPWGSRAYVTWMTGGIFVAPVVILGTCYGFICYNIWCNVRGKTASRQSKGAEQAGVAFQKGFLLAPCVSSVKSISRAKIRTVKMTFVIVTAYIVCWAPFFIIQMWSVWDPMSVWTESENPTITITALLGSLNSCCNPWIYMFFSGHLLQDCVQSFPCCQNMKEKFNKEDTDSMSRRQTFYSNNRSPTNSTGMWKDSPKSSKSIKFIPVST
- assayProtocol: Binding affinity measured by inhibition of 3[H] AVP binding to cloned human vasopressin V1a receptor
assayReadout: IC50 (nM)

molecule="O=C(NCCN1CCCC1)C1=CC2(CC1)CCN(C(=O)c1ccc(NC(=O)c3ccccc3F)cc1)c1ccccc1C2 (stereo not drawn)" readoutunit=nM testvalue=8
molecule="Cc1ccc(F)cc1C(=O)Nc1ccc(C(=O)N2CCC3(C=C(C(=O)NCCN4CCCCC4)CC3)Cc3ccccc32)cc1 (stereo not drawn)" readoutunit=nM testvalue=10
molecule="COC(=O)CNC(=O)C1=CC2(CC1)CCN(C(=O)c1ccc(NC(=O)c3cc(F)ccc3C)cc1)c1ccccc1C2 (stereo not drawn)" readoutunit=nM testvalue=7

Data origin: ChEMBL document CHEMBL1146639
